Tested on: U-251
test.method.notes: NCI tumour cell line growth inhibition, 48 h
Active and inactive are the calls of the source. No stated cut-off is given here; in the data, active = GI50 up to about 1.1 µM and inactive = higher.
property.label: GI50

Solved cases below.
Problem: Provide the reported GI50 (system: U-251) for CC(C)N(C(=O)C12C3C4C1(I)C1C2C3(I)C41C(=O)N(C(C)C)C(C)C)C(C)C (stereo not given)
Result: > 71 µM (inactive)

Problem: Provide the reported GI50 (system: U-251) for C/C(CN1C(=O)c2ccccc2C1=O)=N\NS(=O)(=O)c1cccc(C(=O)O)c1
Result: > 100 µM (inactive)

Problem: Provide the reported GI50 (system: U-251) for COc1ccc(NC(=O)CC/C(CC(=O)c2ccccc2Cl)=N\Nc2nnc(C)n2N)cc1
Result: > 100 µM (inactive)

Problem: Provide the reported GI50 (system: U-251) for COC(=O)Cn1cnc2c(Cl)nc(Nc3ccccc3)nc21
Result: 66.7 µM (inactive)

Turning now to a further compound:
Problem: Provide the reported GI50 (system: U-251) for CCCCCCCCCCCCCCCC(=O)NCC(COP(=O)([O-])OCC[N+](C)(C)C)OCC (stereo not given)
Result: 4.16 µM (inactive)

* * *

Test system: A549
test.method.notes: NCI tumour cell line growth inhibition, 48 h
The source made the active and inactive calls. Cut-off read from the data, not from the text of the source: active = GI50 up to about 1.1 µM and inactive = higher.
Pick one and only one: active, inactive

Answered examples (6):
Problem: What outcome does the record of this test show for CC(C)OC(=O)[C@@H]1OC(C)(C)O[C@H]1C(=O)OC(C)C ?
Result: inactive

Problem: What outcome does the record of this test show for CC1=CC(=C(c2ccc(N)c(C)c2)c2ccc(N)c(C)c2)C=CC1=N ?
Result: inactive

Problem: What outcome does the record of this test show for COc1cc(CNc2ccc(C)cc2)cc(OC)c1OC ?
Result: active

Problem: What outcome does the record of this test show for COCO[C@@H]1C[C@H]2C(=O)N(COC)c3ccccc3C(=O)N2C1 ?
Result: inactive

Problem: What outcome does the record of this test show for [N-]=[N+]=NC1C(O)C(CO)OC1n1ccc(N)nc1=O (centres undefined) ?
Result: inactive

Problem: What outcome does the record of this test show for CC1(C)OP(=O)(O)CC1=O ?
Result: inactive

***
Problem: What outcome does the record of this test show for N#CC1(CCCI)CCCC1 ?
Result: inactive

Problem: What outcome does the record of this test show for O=Cc1[nH]c(=O)[nH]c(=O)c1CCl ?
Result: inactive

Problem: What outcome does the record of this test show for CCOC(=O)Nc1ccc(S(=O)(=O)NCCCl)cc1.CCOC(=O)Nc1ccc(S(=O)(=O)NCCCl)cc1.O=C(O)c1ccc(/N=N/Cl)cc1O ?
Result: inactive

* * *

Tested on: HL-60
test.method.notes: NCI tumour cell line growth inhibition, 48 h
Calls of active or inactive are those of the source. Cut-off read from the data, not from the text of the source: active = GI50 up to about 1.1 µM and inactive = higher.
property.label: GI50

Solved cases below.
Problem: Give reported GI50 value for CCOC(=O)CSc1nc(-c2ccccc2)c(C#N)c(=O)[nH]1
Result: > 100 µM (inactive)

Problem: Give reported GI50 value for CCN1C(=O)c2ccccc2C1(O)c1ccc(Cl)cc1 (configuration not stated)
Result: 30 µM (inactive)

Problem: Give reported GI50 value for S=C(CSc1ccccc1)Nc1cccc2ccccc12
Result: 40.9 µM (inactive)

Problem: Give reported GI50 value for CC1(C)CC2C=C(C=O)C3(C=O)CC3(C)C2C1 (configuration not stated)
Result: 0.0333 µM (active)

Problem: Give reported GI50 value for O=C1NC(=O)C(C(=O)C(=O)Nc2cccc(C(F)(F)F)c2)C(=O)N1
Result: > 100 µM (inactive)

Problem: Give reported GI50 value for C=CCc1ccc(O)c(-c2cc(C3Oc4c(-c5cc(CC=C)ccc5O)cc(O)cc4[C@@H]3CO)ccc2O)c1 (some centres not stated)
Result: 18.5 µM (inactive)

Parameter requested: GI50. Apply to each item below.
1. Nc1nc(=O)c(/N=N/c2ccccc2)c(C(=O)O)[nH]1
2. COc1ccc(NCC(=O)Nn2c(-c3ccccc3)nc3ccccc3c2=O)cc1
3. CCCCC1=C(C(=O)N2CCOCC2)C2(OCCO2)C1=O
4. CCOC(=O)CSc1c(C(=O)OCC)c(=O)n(-c2ccccc2)c(=S)n1-c1ccccc1
5. C=CCc1cc(-c2cc(CC=C)c(O)c(CN(CCCl)CCCl)c2)cc(CN(CCCl)CCCl)c1O

Result:
1: 37.9 µM (inactive); 2: 42.3 µM (inactive); 3: 30.2 µM (inactive); 4: 17.1 µM (inactive); 5: 3.09 µM (inactive)

Parameter requested: GI50. Apply to each item below.
1. COc1ccccc1NC(=O)C1=C(C)NC(C)=C(C(=O)Nc2ccccc2OC)C1c1ccc([N+](=O)[O-])cc1
2. COC1=NC(NC2OCC(O)C(O)C2O)=C(NC(C)=O)CN1C (configuration not stated)
3. CCCC1(NC(=O)C(F)(F)F)CC(OC)OC2COC(c3ccccc3)OC21 (configuration not stated)

Result:
1: 39.2 µM (inactive); 2: > 100 µM (inactive); 3: 27.1 µM (inactive)

Parameter requested: GI50. Apply to each item below.
1. Cc1ccc(Cl)c2[nH]c(-c3ccccc3)cc(=O)c12
2. Cc1c2c(c(C)c3c[n+](C)ccc13)Oc1ccccc1O2
3. COc1cc(OC)c(/C=C\c2ccnc3ccccc23)c(OC)c1
4. CSC1C=C(C(C)C)CCC1(C)SC (configuration not stated)
5. COC1OC(=O)[C@H]2O[N+]([O-])=C(C)[C@@H]12 (some centres not stated)
6. CCN(CC)CCN1CCN=c2c3cc(OC)ccc3n3cnc4ccc1c2c43
7. c1ccc(SC(Sc2ccccc2)=C2CCC2)cc1
8. Nc1nc(SCCC/C=C/B(O)O)nc2c1ncn2C1OC(COP(=O)(O)O)C(O)C1O (configuration not stated)

Result:
1. 23 µM (inactive)
2. 13.3 µM (inactive)
3. 0.347 µM (active)
4. 2.3 µM (inactive)
5. > 100 µM (inactive)
6. 0.43 µM (active)
7. > 100 µM (inactive)
8. > 203 µM (inactive)
